The following compounds are shown together with reported Ki values.
system.name: Rhodazain (Trypanosoma brucei rhodesiense, UniProt Q95PM0)
Sequence (Q95PM0 entry or part of it): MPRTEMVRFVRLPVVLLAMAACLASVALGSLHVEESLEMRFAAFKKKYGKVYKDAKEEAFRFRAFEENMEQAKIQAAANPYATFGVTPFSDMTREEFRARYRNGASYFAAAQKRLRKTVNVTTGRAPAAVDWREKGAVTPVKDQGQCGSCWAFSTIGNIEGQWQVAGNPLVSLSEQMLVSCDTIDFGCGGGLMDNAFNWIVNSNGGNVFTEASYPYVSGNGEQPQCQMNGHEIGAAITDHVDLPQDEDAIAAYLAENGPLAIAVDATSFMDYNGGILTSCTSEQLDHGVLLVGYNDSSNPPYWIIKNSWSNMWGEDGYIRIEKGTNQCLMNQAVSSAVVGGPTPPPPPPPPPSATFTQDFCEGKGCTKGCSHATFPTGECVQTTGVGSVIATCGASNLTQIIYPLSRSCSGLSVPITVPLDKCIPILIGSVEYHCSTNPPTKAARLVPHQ
test.description: Cysteine protease inhibition, progress curve method, rhodazain
Format: biochemical, Trypanosoma brucei rhodesiensi
condition.notes: Rhodazain Ki (nM), 10 uM Cbz-Leu-Arg-AMC, 100 mM Na acetate pH 5.5, 5 mM cysteine
Write it as a number; the unit nM goes unstated.

## Task Need Ki of O=C(NC(Cc1ccccc1)C(=O)N[C@@H]1CCCN(S(=O)(=O)c2ccccn2)CC1=O)c1cccc2ccccc12 (single isomer, unassigned) , thanks.
## Result 2.5

## Task # lookup: Ki of O=C(N[C@@H](Cc1ccccc1)C(=O)NC1CCCN(S(=O)(=O)c2ccccn2)CC1=O)c1cccc2cccnc12 (single isomer, unassigned) [Example 189]
## Result 3.1

## Task Dear colleague, I am looking for the recorded Ki of the following compound: COc1ccc(CC(=O)N[C@@H](CC(C)C)C(=O)NC2CCCN(S(=O)(=O)c3ccccn3)CC2=O)cc1OCc1ccccc1 (stereo partly drawn)
## Result 31

## Task # input compound: COc1cccc2cc(C(=O)N[C@@H](CC(C)C)C(=O)N[C@H]3CCCN(S(=O)(=O)c4nccs4)CC3=O)oc12 ; wanted: its Ki
## Result 4.1

## Task Record request: Ki value, item CC(C)C[C@H](NC(=O)c1cc2sccc2s1)C(=O)N[C@H]1CCCN(C(=O)Nc2ccccc2F)CC1=O
## Result 2.3

## Task # input compound: CC(C)C[C@H](NC(=O)c1ccc(-c2ccc(Cl)cc2)o1)C(=O)N[C@@H]1CCCN(S(=O)(=O)c2ccccn2)CC1=O ; wanted: its Ki
## Result 8.1

###

system.name: Schisto B 1 (Schistosoma mansoni, UniProt P25792)
Sequence (P25792 89-340): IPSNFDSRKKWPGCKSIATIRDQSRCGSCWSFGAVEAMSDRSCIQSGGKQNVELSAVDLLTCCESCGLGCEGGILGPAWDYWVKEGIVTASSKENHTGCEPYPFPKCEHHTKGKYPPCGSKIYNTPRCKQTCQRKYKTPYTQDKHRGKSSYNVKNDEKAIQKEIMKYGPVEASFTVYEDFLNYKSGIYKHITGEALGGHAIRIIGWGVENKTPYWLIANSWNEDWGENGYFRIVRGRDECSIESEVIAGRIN
test.description: Cysteine protease inhibition, progress curve method, schistosoma B 1
Format: biochemical
condition.notes: 10 uM Cbz-Phe-Arg-AMC, 100 mM Na acetate pH 5.5, 5 mM cysteine; read-out: Schisto B 1 Ki
Protocol: Standard assay conditions for the determination of kinetic constants used 10 uM fluorogenic peptide substrate, Cbz-Phe-Arg-AMC for the cysteine proteases from Leishmania spp and Schistosoma Mansoni, Cbz-Leu-Arg-AMC for the cysteine proteases from Plasmodium falciparum and Trypanosoma brucei rhodesiensi, and Ac-Lys-Glu-Lys-Leu-Arg-AMC (4 uM final substrate concentration) for the cysteine protease from Trypoanosoma cruzi, and were determined in 100 mM Na acetate at pH 5.5 containing 5 mM cysteine. […]
Measured Ki by item
Report the value in nM with no unit label.

Worked examples follow.
molecule: Cc1c(C(=O)N[C@@H](CC(C)C)C(=O)N[C@H]2CCCN(S(=O)(=O)c3cccc(Cl)c3)CC2=O)oc2ccccc12 [Example 90]
system.name: Schisto B 1 (Schistosoma mansoni, UniProt P25792)
unit.text: nM
number: 48
--
molecule: O=C(N[C@@H](Cc1ccccc1)C(=O)NC1CCCN(S(=O)(=O)c2ccccn2)CC1=O)c1cc2ccccc2o1 (stereo partly drawn) [Example 104]
system.name: Schisto B 1 (Schistosoma mansoni, UniProt P25792)
unit.text: nM
number: 76
--
molecule: CC(C)C[C@H](NC(=O)c1cc2ccccc2o1)C(=O)N[C@H]1CCCN(S(=O)(=O)c2ccc(Cl)cc2)CC1=O [Example 131]
system.name: Schisto B 1 (Schistosoma mansoni, UniProt P25792)
unit.text: nM
number: 75
--
molecule: COc1ccc2oc(C(=O)N[C@@H](CC(C)C)C(=O)N[C@H]3CCCN(S(=O)(=O)c4cccs4)CC3=O)cc2c1 [Example 143]
system.name: Schisto B 1 (Schistosoma mansoni, UniProt P25792)
unit.text: nM
number: 55
--
molecule: CC(C)C[C@@H](NC(=O)c1cc2cc(OCCN3CCOCC3)ccc2o1)C(=O)NC1CCCN(C(=O)Cc2cccc(-c3ccccn3)c2)CC1=O (single isomer, unassigned) [Example 4]
system.name: Schisto B 1 (Schistosoma mansoni, UniProt P25792)
unit.text: nM
number: 100

Would you kindly look at the next entry?
## Task Any idea what its Ki is? The molecule is Cc1c(C(=O)N[C@@H](CC(C)C)C(=O)N[C@H]2CCCN(S(=O)(=O)c3ccc(Cl)cc3)CC2=O)oc2ccccc12 [Example 134]
## Result 78
